Cited source for all entries: patent US20080015137A1

- TESTED TARGET: T1, Karyopherin beta2 (Kapβ2), full length, wild type (human, UniProt Q92973-2 1-890)
- T1 construct: mature; Expressed as a GST fusion from pGEX-Tev and purified; Also used here for the Kapβ2 added in the GST pull-downs; also called Transportin
- T1 sequence (looked up): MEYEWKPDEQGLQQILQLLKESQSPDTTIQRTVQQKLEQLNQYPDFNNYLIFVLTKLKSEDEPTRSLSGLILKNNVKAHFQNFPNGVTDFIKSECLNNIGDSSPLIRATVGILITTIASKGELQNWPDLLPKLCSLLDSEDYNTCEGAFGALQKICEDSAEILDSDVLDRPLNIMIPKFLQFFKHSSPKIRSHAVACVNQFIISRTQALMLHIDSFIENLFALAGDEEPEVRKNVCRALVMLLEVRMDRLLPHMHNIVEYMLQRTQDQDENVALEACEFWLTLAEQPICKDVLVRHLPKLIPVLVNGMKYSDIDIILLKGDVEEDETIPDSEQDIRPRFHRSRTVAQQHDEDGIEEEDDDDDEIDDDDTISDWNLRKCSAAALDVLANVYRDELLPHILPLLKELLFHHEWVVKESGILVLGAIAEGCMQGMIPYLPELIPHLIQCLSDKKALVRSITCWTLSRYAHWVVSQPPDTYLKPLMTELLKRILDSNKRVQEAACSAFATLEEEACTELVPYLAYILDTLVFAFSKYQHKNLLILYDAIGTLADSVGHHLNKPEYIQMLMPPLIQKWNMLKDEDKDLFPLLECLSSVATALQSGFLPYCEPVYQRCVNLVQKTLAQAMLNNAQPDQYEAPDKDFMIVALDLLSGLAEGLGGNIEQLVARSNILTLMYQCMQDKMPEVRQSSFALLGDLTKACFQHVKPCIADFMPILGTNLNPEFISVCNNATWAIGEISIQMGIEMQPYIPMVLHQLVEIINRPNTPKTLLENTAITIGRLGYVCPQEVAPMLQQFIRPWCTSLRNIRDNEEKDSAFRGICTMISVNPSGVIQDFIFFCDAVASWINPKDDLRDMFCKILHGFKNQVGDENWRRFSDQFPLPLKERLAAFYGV
- PROTOCOL DESCRIPTION: competition ITC; 108 µM MBP-M9M titrated into 12 µM Kapβ2 with 18 µM MBP-hnRNP A1-NLS R284A/P288A/Y289A as displacement ligand
QUANTITY NAME: Kd (pM)
Report the figure in pM without appending any unit label.

Exercise: Please report the recorded Kd for GPGYSGGSRGYGSGGQGYGNQGSGYGGSFEPYANPTKR (designed binder) [MBP-M9M] .
Solution: 107
